Assay Explanation: melting temperature; fluorescence melt of hairpins on a sequencing array, two-state fit, raised by 9.35 °C to match UV melts
Assay Setup: sodium 0.088 M
Please assign NOT MET whenever Tm is at or above 50 °C, and MET whenever it is below.

GCGGCCACGAAAGTGCGC (((..(((....)))))): NOT MET
GAAAGCCGAAAGGCGTTC (((.(((....))).))): NOT MET
GCGAAGCGAAAGCTAAGC ((..(((....)))..)): NOT MET
GTTCTCACGAAAGTGAAC (((..(((....)))))): MET
GTCAACCGAAAGGTGGAC (((.(((....))).))): NOT MET
GGCTCGGCGAAAGCCGCC (((..(((....)))))): MET

Determine whether this sequence shows Tm lower than 50 °C (ties excluded): GAATGAGGAAACTCATTC (((((((....)))))))
NOT MET

Determine whether this sequence shows Tm lower than 50 °C (ties excluded): GCTATCGAAAGATCGAGC ((((((....)))..)))
MET

Determine whether this sequence shows Tm lower than 50 °C (ties excluded): GTCAGCGAAAGCTTTGAC ((((((....)))..)))
MET

Determine whether this sequence shows Tm lower than 50 °C (ties excluded): GCTACCCGAAAGGGAAGC (((.(((....))).)))
NOT MET

###

Assay Explanation: melting temperature; fluorescence melt of hairpins on a sequencing array, two-state fit, raised by 9.35 °C to match UV melts
Assay Setup: sodium 0.088 M
Kindly state Tm for each of the entries shown.
One number for each entry, in °C.

Example cases with answers are listed next.
GATCAACTTTTTGATC ((((((....)))))): 43.3
GATCATACTTATGATC ((((((....)))))): 48.5
GATCCAAACTGGATC ((((((...)))))): 50.4
GTCAACGGAAACATTGAC (((((.(....).))))): 35.6
GTGTTAGGAAACTAACGC (.(((((....))))).): 47.4

Would you be so kind as to report Tm for each listed record?
1. GACTATGAAAATAGTC ((((((....))))))
2. GGAAAAGGAAACTTTCCC ((.((((....)))).))

1. 49.5
2. 27.8

Would you be so kind as to report Tm for each listed record?
1. GTTACACGAAAGTGAAAC (((.(((....))).)))
2. GATCCGGTTCCGGATC ((((((....))))))
3. GTTAGGGCGAAAGCCAAC (((..(((....))))))

[45.3, 62.7, 29.3]

Would you be so kind as to report Tm for each listed record?
1. GCATAGGCGAAAGCCTGC (((..(((....))))))
2. ACCGGGAAACCGGT (((((....)))))

1. 49
2. 66.5

###

Assay Explanation: melting temperature; fluorescence melt of hairpins on a sequencing array, two-state fit, raised by 9.35 °C to match UV melts
Assay Setup: sodium 0.088 M
Classify on Tm using small value (below 40 °C), mid value (40 °C to below 50 °C), large value (50 °C or more)

Before answering, review these 2 worked examples.
GTACCAGGAAACTAGTAC ((((.((....)).)))): small value
GCTAGCGAAAGCTCAAGC ((((((....)))..))): small value

Field: class (Tm) — entry: GATCGCATCGGCGATC ((((((....))))))
large value

Field: class (Tm) — entry: GCCTCGGCGAAAGCCGGC (((..(((....))))))
large value

Field: class (Tm) — entry: GGTTACGAAAGTACACC ((((((....))).)))
mid value

Field: class (Tm) — entry: GTCAGGGGAAACCCTAAC ((.((((....)))).))
small value

Field: class (Tm) — entry: GCACCGCGAAAGCGTGC (((.(((....))))))
large value

Field: class (Tm) — entry: GTTAAGGGAAACCTTAGC (.(((((....))))).)
small value

Field: class (Tm) — entry: AGAAGGAAACTTCT (((((....)))))
small value

Field: class (Tm) — entry: GTGTTTCGAAAGAATCAC (((.(((....))).)))
mid value

Field: class (Tm) — entry: GCATCCGAAAGGATTTGC ((((((....)))..)))
mid value

Field: class (Tm) — entry: GAAAGCGGAAACGCTTTC (((((((....)))))))
large value

Field: class (Tm) — entry: GACCGCGGAAACGCGGCC (.(((((....))))).)
large value
